Reference source: patent US8796250B2

# Tested Target: PDGFR-beta phosphorylation (Tyr-857) in Aortic SMC stimulated with PDGF BB (Homo sapiens)
# Construct: endogenous in cells
# Sequence (P09619 33-1106): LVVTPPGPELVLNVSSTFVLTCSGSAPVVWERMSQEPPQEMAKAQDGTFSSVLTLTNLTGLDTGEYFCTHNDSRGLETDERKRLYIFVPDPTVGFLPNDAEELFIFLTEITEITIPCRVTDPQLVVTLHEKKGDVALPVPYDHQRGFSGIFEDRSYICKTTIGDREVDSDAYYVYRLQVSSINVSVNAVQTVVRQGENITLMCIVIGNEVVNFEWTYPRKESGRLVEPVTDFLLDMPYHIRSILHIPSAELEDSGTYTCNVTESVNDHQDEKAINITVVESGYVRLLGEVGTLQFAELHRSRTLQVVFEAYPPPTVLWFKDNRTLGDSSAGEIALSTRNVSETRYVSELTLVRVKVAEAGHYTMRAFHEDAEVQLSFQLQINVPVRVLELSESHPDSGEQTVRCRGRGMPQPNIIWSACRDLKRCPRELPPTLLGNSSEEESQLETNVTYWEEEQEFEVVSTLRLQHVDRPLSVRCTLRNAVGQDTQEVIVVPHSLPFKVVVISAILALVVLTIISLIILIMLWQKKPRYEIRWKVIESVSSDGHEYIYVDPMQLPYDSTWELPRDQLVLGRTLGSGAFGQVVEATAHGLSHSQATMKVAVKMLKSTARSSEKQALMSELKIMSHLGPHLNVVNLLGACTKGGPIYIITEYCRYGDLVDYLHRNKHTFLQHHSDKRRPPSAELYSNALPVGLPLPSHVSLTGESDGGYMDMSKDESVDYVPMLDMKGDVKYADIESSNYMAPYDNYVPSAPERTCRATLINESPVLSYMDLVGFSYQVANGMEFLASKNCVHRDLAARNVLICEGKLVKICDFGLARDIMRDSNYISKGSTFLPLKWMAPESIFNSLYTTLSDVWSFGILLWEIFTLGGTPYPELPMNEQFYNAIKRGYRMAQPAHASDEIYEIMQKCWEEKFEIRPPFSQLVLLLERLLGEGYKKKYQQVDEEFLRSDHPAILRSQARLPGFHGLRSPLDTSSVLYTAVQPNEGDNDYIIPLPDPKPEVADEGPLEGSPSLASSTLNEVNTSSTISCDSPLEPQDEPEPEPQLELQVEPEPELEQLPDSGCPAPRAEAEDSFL
# Test Description: pPDGFR-Beta Sandwich ELISA in AoSMC Cells
# Applied Conditions: 1 hr compound, 10 ng/mL PDGF BB for 7 minutes, read-out: IC50 in bioassay of PDGFR inhibition in cells
Parameter Measured: IC50

Query :: # IC50 lookup, item CNC(=O)c1cc(Oc2ccc(NC(=O)Nc3ccc(Cl)c(C(F)(F)F)c3)c(Cl)c2)ccn1
Result :: < 10 µM

----------
IC50 data for mouse PDGFR (PDGFR beta) (Mus musculus) follow.

These solved cases illustrate the format of a correct answer.
- CNC(=O)c1cc(Oc2ccc(NC(=O)Nc3ccc(Cl)c(C(F)(F)F)c3)cc2)cc[n+]1[O-]: < 10 µM
- CNC(=O)c1cc(Oc2ccc(NC(=O)Nc3ccc(Br)c(C(F)(F)F)c3)c(F)c2)ccn1: < 10 µM
- CNC(=O)c1cc(Oc2ccc(NC(=O)Nc3ccc(F)c(C(F)(F)F)c3)c(F)c2)ccn1: < 10 µM

Query :: # IC50 lookup, item NC(=O)c1cc(Oc2ccc(NC(=O)Nc3ccc(Cl)c(C(F)(F)F)c3)cc2)cc[n+]1[O-]
Result :: < 10 µM

Query :: Similarly, N#Cc1cc(Oc2ccc(NC(=O)Nc3ccc4c(c3)C(F)(F)OC(F)(F)O4)c(F)c2)ccn1 ?
Result :: < 10 µM
